Molecular target: Epac1 (Homo sapiens, UniProt O95398)
Construct: made in house
Sequence (O95398 150-881 isoform O95398-3): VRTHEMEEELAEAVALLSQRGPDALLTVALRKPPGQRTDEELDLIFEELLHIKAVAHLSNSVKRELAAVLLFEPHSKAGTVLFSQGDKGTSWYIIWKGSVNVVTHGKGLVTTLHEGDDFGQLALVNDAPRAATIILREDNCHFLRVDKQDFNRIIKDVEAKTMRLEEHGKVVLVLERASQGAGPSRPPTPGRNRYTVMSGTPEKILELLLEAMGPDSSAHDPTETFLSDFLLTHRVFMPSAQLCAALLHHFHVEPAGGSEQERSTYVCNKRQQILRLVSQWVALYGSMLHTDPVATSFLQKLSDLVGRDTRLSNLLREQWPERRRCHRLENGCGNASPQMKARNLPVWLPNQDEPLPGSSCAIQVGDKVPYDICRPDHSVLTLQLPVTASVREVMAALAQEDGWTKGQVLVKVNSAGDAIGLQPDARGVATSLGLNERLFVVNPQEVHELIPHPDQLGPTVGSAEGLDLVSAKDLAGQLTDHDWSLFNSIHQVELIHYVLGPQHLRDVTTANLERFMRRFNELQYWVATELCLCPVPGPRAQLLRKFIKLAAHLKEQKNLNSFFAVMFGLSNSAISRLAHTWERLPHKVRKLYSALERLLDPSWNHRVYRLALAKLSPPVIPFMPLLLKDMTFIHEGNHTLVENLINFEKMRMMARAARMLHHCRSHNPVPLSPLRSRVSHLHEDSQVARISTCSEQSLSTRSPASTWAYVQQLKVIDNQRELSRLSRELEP
Test: Epac activation assay, Epac1
Format: biochemical
Details: Epac1; maximal activity relative to cAMP
Please mark Yes if the recorded Rel. kmax is equal to or greater than 0.9, and No if it falls below.

Example results:
CO[C@@H]1[C@@H]2OP(=O)(O)OC[C@H]2O[C@H]1n1c(Sc2ccc(O)cc2)nc2c(N)ncnc21 [D-008, 8-pOHPT-2′-O-Me-cAMP]    Yes
O[C@@H]1[C@@H]2OP(O)(=S)OC[C@H]2O[C@H]1n1cnc2cc(Cl)c(Cl)cc21 (some centres unmarked) [S-400, Sp-5,6-DCl-cBIMPS]    Yes
Nc1ncnc2c1nc(SCc1ccccc1)n2[C@@H]1O[C@@H]2CO[P@](O)(=S)O[C@H]2[C@H]1O [S-220, Sp-8-BnT-cAMPS]    No
COc1ccc(Sc2nc3c(N)ncnc3n2[C@@H]2O[C@@H]3COP(=O)(O)OC3[C@@H]2OC)cc1 (stereo partly drawn) [D-009, 8-pMeOPT-2′-O-Me-cAMP]    Yes
Nc1ncnc2c1nc(Br)n2[C@@H]1O[C@@H]2COP(O)(=S)O[C@@H]2C1O (some centres unmarked) [S-010, Sp-8-Br-cAMPS]    Yes
CO[C@H]1C2OP(O)(=S)OC[C@H]2O[C@H]1n1c(Sc2ccc(Cl)cc2)nc2c(N)ncnc21 (some centres unmarked) [S-211, Sp-8-pCPT-2′-O-Me-cAMPS]    Yes

Has Nc1ncnc2c1nc(O)n2[C@@H]1O[C@@H]2CO[P@](O)(=S)O[C@H]2[C@H]1O [S-130, Sp-8-OH-cAMPS] a recorded Rel. kmax greater than or equal to 0.9?
No

Say whether CNc1nc2c(N)ncnc2n1[C@@H]1O[C@@H]2CO[P@](O)(=S)O[C@H]2[C@H]1Cl [S-033, Sp-8-MeA-2′-Cl-cAMPS] shows Rel. kmax of 0.9 or more.
No

Given the entry CSc1nc2c(N)ncnc2n1[C@@H]1O[C@@H]2COP(=O)(O)O[C@H]2[C@H]1SC [D-002, 8,2′-DMeT-cAMP] , answer whether its Rel. kmax meets or surpasses 0.9.
Yes

API: above_or_equal(metric=Rel. kmax, cutoff=0.9) for item Nc1ncnc2c1nc(NCc1ccccc1)n2[C@@H]1O[C@@H]2COP(=O)(O)O[C@H]2[C@H]1O [L-014, 8-BnA-cAMP]
No

Hi team, for Nc1ncnc2c1ncn2[C@@H]1O[C@@H]2COP(=O)(O)O[C@H]2[C@H]1N [Z-003, 2′-NH2-cAMP] , is the recorded Rel. kmax at or above 0.9?
No

Please check the record Nc1ncnc2c1nc(Sc1ccc(Cl)cc1)n2[C@@H]1O[C@@H]2COP([O-])(=S)O[C@H]2[C@H]1O.[Na+] (some centres unmarked) [S-210, Sp-8-pCPT-cAMPS] and state if its Rel. kmax is at or above 0.9.
No

---

Target: Epac2^fl (Mus musculus, UniProt Q9EQZ6)
Sequence (Q9EQZ6 1-993 isoform Q9EQZ6-3): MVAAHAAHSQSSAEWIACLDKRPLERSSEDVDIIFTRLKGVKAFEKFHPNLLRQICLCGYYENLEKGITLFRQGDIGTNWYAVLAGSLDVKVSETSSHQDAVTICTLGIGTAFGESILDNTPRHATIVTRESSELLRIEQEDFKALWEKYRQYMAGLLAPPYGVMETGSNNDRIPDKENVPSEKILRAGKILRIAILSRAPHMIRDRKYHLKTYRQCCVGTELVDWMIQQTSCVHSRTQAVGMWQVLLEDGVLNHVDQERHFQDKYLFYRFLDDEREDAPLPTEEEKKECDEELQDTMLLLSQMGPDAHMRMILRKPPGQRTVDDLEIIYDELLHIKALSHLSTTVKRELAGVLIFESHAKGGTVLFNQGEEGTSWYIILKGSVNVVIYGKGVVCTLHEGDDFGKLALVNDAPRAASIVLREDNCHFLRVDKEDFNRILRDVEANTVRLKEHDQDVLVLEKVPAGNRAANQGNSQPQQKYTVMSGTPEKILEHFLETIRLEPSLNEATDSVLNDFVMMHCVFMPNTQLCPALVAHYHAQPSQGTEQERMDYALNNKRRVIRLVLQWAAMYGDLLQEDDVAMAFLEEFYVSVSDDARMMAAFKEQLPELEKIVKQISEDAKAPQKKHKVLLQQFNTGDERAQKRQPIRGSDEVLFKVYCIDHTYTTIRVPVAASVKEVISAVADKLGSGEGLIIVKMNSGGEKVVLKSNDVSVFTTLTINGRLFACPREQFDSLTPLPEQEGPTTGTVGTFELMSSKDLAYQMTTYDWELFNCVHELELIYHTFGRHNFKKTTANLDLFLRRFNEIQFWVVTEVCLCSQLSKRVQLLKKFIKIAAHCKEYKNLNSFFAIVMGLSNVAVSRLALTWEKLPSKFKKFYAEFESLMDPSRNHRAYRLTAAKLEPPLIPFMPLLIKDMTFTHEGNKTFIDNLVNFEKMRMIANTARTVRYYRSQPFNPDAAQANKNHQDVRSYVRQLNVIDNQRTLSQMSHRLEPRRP
Experiment: Epac activation assay, full length Epac2
Type: biochemical
Design: made in house
Conditions: 100 μM compound
# maps each entry to its kobs
Supply the numeric figure in s⁻¹, leaving out any unit text.

Solved cases below.
Cc1ccc(CSc2nc3c(N)ncnc3n2[C@@H]2O[C@@H]3CO[P@](O)(=S)O[C@H]3[C@H]2O)cc1    0.000582
Nc1ncnc2c1nc(SCc1ccccc1)n2[C@@H]1O[C@@H]2CO[P@](O)(=S)O[C@H]2[C@H]1O    0.0015
Nc1ncnc2c1ncn2[C@@H]1O[C@@H]2COP(=O)(O)O[C@H]2[C@H]1O [cAMP, reference compound]    0.000207

Attention now turns to another entry.
Field kobs (entry COC1C2OP(=O)(O)OCC2OC1n1c(Sc2ccc(Cl)cc2)nc2c(N)ncnc21 [D-007, 8-pCPT-2′-O-Me-cAMP, reference compound] ) reads 9.57e-05

---

Target: Epac1 (Homo sapiens)
Construct: made in house
Sequence (O95398 150-881 isoform O95398-3): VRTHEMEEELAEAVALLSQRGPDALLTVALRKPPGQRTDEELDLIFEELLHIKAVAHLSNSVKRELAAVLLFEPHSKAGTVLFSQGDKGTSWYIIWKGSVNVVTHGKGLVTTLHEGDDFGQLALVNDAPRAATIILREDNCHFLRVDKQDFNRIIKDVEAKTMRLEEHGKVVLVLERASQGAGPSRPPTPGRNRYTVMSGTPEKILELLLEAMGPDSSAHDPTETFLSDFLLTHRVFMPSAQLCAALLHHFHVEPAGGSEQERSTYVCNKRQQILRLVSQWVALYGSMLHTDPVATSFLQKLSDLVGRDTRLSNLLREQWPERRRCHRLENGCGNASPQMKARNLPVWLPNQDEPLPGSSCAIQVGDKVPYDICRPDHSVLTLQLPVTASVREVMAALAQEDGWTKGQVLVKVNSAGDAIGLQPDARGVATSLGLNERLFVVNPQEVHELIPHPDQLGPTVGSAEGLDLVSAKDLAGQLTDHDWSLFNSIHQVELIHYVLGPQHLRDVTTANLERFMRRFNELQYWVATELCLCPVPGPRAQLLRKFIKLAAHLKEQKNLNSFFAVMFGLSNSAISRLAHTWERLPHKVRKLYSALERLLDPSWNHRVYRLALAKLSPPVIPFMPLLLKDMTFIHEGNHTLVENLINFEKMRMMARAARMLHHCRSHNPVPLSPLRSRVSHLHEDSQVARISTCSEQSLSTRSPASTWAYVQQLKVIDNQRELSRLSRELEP
Assay: Epac activation assay, Epac1
Format: biochemical
Conditions: 50 μM compound
EXPERIMENTAL READOUT: kobs (s⁻¹)
Give your result in s⁻¹ as a bare value.

The molecule Cc1ccc(CSc2nc3c(N)ncnc3n2[C@@H]2O[C@@H]3CO[P@](O)(=S)O[C@H]3[C@H]2O)cc1 [S-230, Sp-8-pMeBnT-cAMPS] showed kobs equal to 0.000148

COC1C2OP(=O)(O)OCC2OC1n1c(Sc2ccc(Cl)cc2)nc2c(N)ncnc21 [D-007, 8-pCPT-2′-O-Me-cAMP, reference compound] yielded kobs of 0.00348

The reported kobs of the molecule Nc1ncnc2c1nc(SCc1ccccc1)n2[C@@H]1O[C@@H]2CO[P@](O)(=S)O[C@H]2[C@H]1O [S-220, Sp-8-BnT-cAMPS] was 0.000328

Short answer for Nc1ncnc2c1ncn2[C@@H]1O[C@@H]2COP(=O)(O)O[C@H]2[C@H]1O [cAMP, reference compound] : kobs was 0.000746

---

Molecular target: Epac2^Δ280 (Mus musculus, UniProt Q9EQZ6)
Construct: made in house
Sequence (Q9EQZ6 299-1011, stated change not applied): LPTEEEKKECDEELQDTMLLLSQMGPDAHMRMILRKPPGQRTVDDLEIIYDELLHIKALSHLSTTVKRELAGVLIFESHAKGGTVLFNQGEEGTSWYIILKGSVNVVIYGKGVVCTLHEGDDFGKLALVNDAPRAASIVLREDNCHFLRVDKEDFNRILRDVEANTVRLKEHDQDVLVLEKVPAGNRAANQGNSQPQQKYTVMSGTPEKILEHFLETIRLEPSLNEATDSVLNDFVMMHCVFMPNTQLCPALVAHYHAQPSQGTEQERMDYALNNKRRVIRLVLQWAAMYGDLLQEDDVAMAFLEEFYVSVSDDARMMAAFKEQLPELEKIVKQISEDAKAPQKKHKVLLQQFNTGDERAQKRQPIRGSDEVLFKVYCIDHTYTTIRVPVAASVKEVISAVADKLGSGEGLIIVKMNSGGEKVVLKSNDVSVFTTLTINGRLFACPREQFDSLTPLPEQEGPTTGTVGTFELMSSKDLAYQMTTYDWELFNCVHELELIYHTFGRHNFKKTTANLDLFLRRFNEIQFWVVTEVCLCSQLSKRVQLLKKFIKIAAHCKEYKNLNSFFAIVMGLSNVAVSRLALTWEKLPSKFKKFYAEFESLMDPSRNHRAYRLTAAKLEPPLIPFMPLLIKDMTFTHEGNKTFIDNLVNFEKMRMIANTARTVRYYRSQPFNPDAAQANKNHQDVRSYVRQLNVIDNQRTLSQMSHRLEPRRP
Experiment: Epac activation assay (Rap1B•mGDP fluorescence nucleotide exchange), Epac2^Δ280
Type: biochemical
Details: Epac2^Δ280
EXPERIMENTAL READOUT: AC50 (nM)
Express your answer in nM, writing the number without its unit.

Completed entries (count: 4):
NCCNc1nc2c(N)ncnc2n1[C@@H]1O[C@@H]2COP(=O)(O)O[C@H]2[C@H]1O [L-006, 8-AEA-cAMP]    1600
Nc1ncnc2c1nc(Br)n2[C@@H]1O[C@@H]2COP(=O)(O)O[C@H]2[C@H]1F [D-004, 8-Br-2′-F-cAMP]    14000
CO[C@H]1C2OP(=O)(O)OC[C@H]2O[C@H]1n1c(Br)nc2c(N)ncnc21 (stereo partly drawn) [D-005, 8-Br-2′-O-Me-cAMP]    8000
COc1ccc(Sc2nc3c(N)ncnc3n2[C@@H]2O[C@@H]3COP(=O)(O)OC3[C@@H]2OC)cc1 (stereo partly drawn) [D-009, 8-pMeOPT-2′-O-Me-cAMP]    2800

Observed AC50 on Epac2^Δ280 (Mus musculus, UniProt Q9EQZ6), entry Nc1ncnc2c1nc(SCc1cccc(C(F)(F)F)c1)n2[C@@H]1O[C@@H]2CO[P@](O)(=S)O[C@H]2[C@H]1O [S-300, Sp-8-mTFMeBnT-cAMPS] , equals 140

Observed AC50, Epac2^Δ280 (Mus musculus, UniProt Q9EQZ6), CNc1nc2c(N)ncnc2n1[C@@H]1O[C@@H]2COP(=O)(O)O[C@H]2[C@H]1O [L-005, 8-MeA-cAMP] : 600

Field AC50 (Epac2^Δ280 (Mus musculus, UniProt Q9EQZ6)), entry CCCCO[C@@H]1[C@@H]2OP(=O)(O)OC[C@H]2O[C@H]1n1cnc2c(N)ncnc21 [Z-006, 2′-O-Bu-cAMP] : 120000

Reported Epac2^Δ280 (Mus musculus, UniProt Q9EQZ6) AC50 for item NCCCCCCNc1nc2c(N)ncnc2n1[C@@H]1O[C@@H]2COP(=O)(O)O[C@H]2[C@H]1O [L-010, 8-AHA-cAMP] was 1200

Result for Nc1ncnc2c1nc(Br)n2[C@H]1C[C@@H]2O[P@@](O)(=S)OC[C@H]2O1 [S-011, Sp-8-Br-2′dcAMPS] , tested on Epac2^Δ280 (Mus musculus, UniProt Q9EQZ6), AC50: 9000

// molecule Cc1ccc(CSc2nc3c(N)ncnc3n2[C@@H]2O[C@@H]3CO[P@](O)(=S)O[C@H]3[C@H]2O)cc1 [S-230, Sp-8-pMeBnT-cAMPS] , assay Epac2^Δ280 (Mus musculus, UniProt Q9EQZ6), AC50 value: 70

Observed AC50 on Epac2^Δ280 (Mus musculus, UniProt Q9EQZ6), entry Nc1ncnc2c1ncn2[C@@H]1O[C@@H]2COP(=O)(O)O[C@H]2[C@H]1F [Z-002, 2′-F-cAMP] , equals 25000
